Reported values of Nucleation assay Δlag, 5 µM compound for individual entries
target: Aβ1-40 peptide (natural β-amyloid peptide, β-AP1-40) (In the fibril binding assay the peptide stood as aged fibrils (many copies, number not stated). In the nucleation assay [CUT]); test: cell-based or functional assay
Square brackets hold non-standard residues; d marks the D form.
PROPERTY_NAME: Nucleation assay Δlag, 5 µM compound

>>> result("H-[dL][dV][dF][dF][dA]-NMe2 (also: TFA salt) [PPI 993: TFA·H-(lvffa)-dimethylamide]")
"1 fold of control lag time"
>>> result("{N‑methyl}-G[dA][dF][dF][dV][dL]-NH2 (also: TFA salt) [PPI 968: TFA·N-methyl-(Gaffvl)-NH2]")
"> 5 fold of control lag time"
>>> result("{N,N‑diethyl}-[dA][dF][dF][dV][dL]-NH2 (also: TFA salt) [PPI 1006: TFA·N,N-diethyl-(affvl)-NH,]")
"1 fold of control lag time"
>>> result("{N,N‑dimethyl}-G[dA][dF][dF][dV][dL]-NH2 (also: TFA salt) [PPI 803: TFA·N,N-dimethyl-(Gaffvl)-NH2]")
"< 1 fold of control lag time"
>>> result("{N‑isopropyl}-G[dA][dF][dF][dV][dL]-NH2 (also: TFA salt) [PPI 970: TFA·N-isopropyl-(Gaffvl)-NH2]")
"> 5 fold of control lag time"
>>> result("{N,N‑dimethyl}-[dA][dF][dF][dV][dL]-NH2 (also: TFA salt) [PPI 913: TFA·N,N-dimethyl-(affvl)-NH2]")
"1 fold of control lag time"
>>> result("{N,N‑diethyl}-G[dA][dF][dF][dV][dL]-NH2 (also: TFA salt) [PPI 1005: TFA·N,N-diethyl-(Gaffvl)-NH2]")
"3 fold of control lag time"
